test system: seizures induced by electroshock and pentylenetetrazole; experiment: Anticonvulsant testing, overall (MES and Met); assay type: in vivo, male Carworth Farms number-1 mice; details: mice, intraperitoneal

{"columns": ["COMPOUND", "STUDY_TARGET", "anticonvulsant activity"],
 "data": [
  ["CCCCOC(=O)c1cc(NC)c2c(Cl)cc(Cl)cc2n1", "seizures induced by electroshock and pentylenetetrazole", "inactive"],
  ["CNc1cc(C(=O)OC)nc2cc(Cl)cc(Cl)c12", "seizures induced by electroshock and pentylenetetrazole", "inactive"],
  ["CCOC(=O)c1cc(O)c2c(Cl)cc(Cl)cc2n1 [5,7 0-di-Cl-2-ethyl ester, 5,7-dichloro-kynurenate ethyl ester]", "seizures induced by electroshock and pentylenetetrazole", "inactive"]
]}
